# fluorescence interference ratio per entry
# protocol_summary: fluorescence interference in NS3h DNA assay – biochemical, ChemBridge library, Cy5 readout, artefact control for HCV NS3 helicase inhibitor project (AID 720488)
# measurement_context: Cy5-dT15 DNA with NS3h, at 100 µM, actives lie on both sides, signal over control mean, under 1 quenches
Out of some 16,000 compounds screened, about 960 (6%) were called active. This is one part of a sample in which actives are shown more often than they occur.
Simply state the number, no unit and no words.

Known fluorescence interference ratio results, listed for orientation:
{"entry_smiles": "O=C(COc1ccccc1Cl)Nc1ccc(O)cc1C(=O)O", "fluorescence interference ratio": 1}
{"entry_smiles": "CCOC(=O)c1sc(NC(=O)COc2ccc(C)cc2C)c(C(=O)OCC)c1C", "fluorescence interference ratio": 0.985}
{"entry_smiles": "CC(C)(C)N1C(=O)NC(=O)C(=Cc2cccs2)C1=O", "fluorescence interference ratio": 1.01}

Let us move to another entry and its fluorescence interference ratio.
fluorescence interference ratio for `Cc1c(N2C(=O)S/C(=C\c3ccc(N(C)C)cc3)C2=O)c(=O)n(-c2ccccc2)n1C` is 1.02

###

# protocol_summary: fluorescence interference in NS3h DNA assay – biochemical, ChemBridge library, Cy5 readout, artefact control for HCV NS3 helicase inhibitor project (AID 720488)
# measurement_context: Cy5-dT15 DNA with NS3h, at 100 µM, actives lie on both sides, signal over control mean, under 1 quenches
The whole screen tested about 16,000 compounds, of which about 960 (6%) were called active.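 Rule for the calls: active = compound fluorescence over control fluorescence at most 0.8, a quencher, or at least a set upper limit, an enhancer; inactive = ratio between 0.8 and the set upper limit.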 The list comes from a sample in which actives are over-represented; it also holds close analogues and randomly drawn compounds.
# output must be one of yes (1) (active), no (0) (inactive)

Worked set:
{"compound": "CCOc1ccccc1NC(=O)Cc1ccccc1", "category": "no (0)"}
{"compound": "Cc1ccc(C(=O)Nc2ccc(Cl)cn2)cc1[N+](=O)[O-]", "category": "no (0)"}
{"compound": "Cc1ccc(S(=O)(=O)N2CCN(Cc3ccc(F)cc3)CC2)cc1", "category": "no (0)"}
{"compound": "O=C(/C=C/c1ccc(F)cc1)Nc1cccc(Cl)c1Cl", "category": "no (0)"}
{"compound": "COc1ccc2[nH]cc(CCNC=O)c2c1", "category": "no (0)"}
{"compound": "Cc1ccc(N2C(=O)C3C4c5ccccc5C(C)(c5ccccc54)C3C2=O)cc1 (configuration not stated)", "category": "no (0)"}

QUERY: For `COc1ccccc1C(=O)N=Nc1c(O)n(C)c2ccccc12` , what call appears in the results of this test?
RESULT: no (0)

QUERY: Lab log entry: `Cc1ccc(-c2cc(NC(=O)c3cccs3)n[nH]2)cc1` — outcome as called in the assay?
RESULT: no (0)

###

# protocol_summary: fluorescence interference in NS3h DNA assay – biochemical, ChemBridge library, Cy5 readout, artefact control for HCV NS3 helicase inhibitor project (AID 720488)
# measurement_context: Cy5-dT15 DNA with NS3h, at 100 µM, actives lie on both sides, signal over control mean, under 1 quenches
Among all 16,000 compounds or so, about 960 (6%) were called active. What follows is part of a selection rich in actives, with near analogues and random picks from the rest.
quantity_measured: fluorescence interference ratio
Just the number, please.

Here are 6 compounds together with their reported answers.
{"compound": "Cc1cc(C)c(NC(=O)C(=O)NCC(C)O)c(C)c1 (centres undefined)", "fluorescence interference ratio": 1.01}
{"compound": "O=C(NC(=S)Nc1ccc([N+](=O)[O-])cc1O)c1ccc(Br)cc1", "fluorescence interference ratio": 0.952}
{"compound": "COc1ccccc1CN1CCN(C(=O)c2ccc([N+](=O)[O-])cc2)CC1", "fluorescence interference ratio": 1.03}
{"compound": "O=C(NC(=S)Nc1ccc2oc(-c3cccnc3)nc2c1)c1ccc(Cl)cc1", "fluorescence interference ratio": 0.998}
{"compound": "O=C(Nc1cc([N+](=O)[O-])ccc1O)c1ccc(C(=O)Nc2cc([N+](=O)[O-])ccc2O)cc1", "fluorescence interference ratio": 1.24}
{"compound": "COC(=O)c1cc(NC(=O)COc2ccc([N+](=O)[O-])cc2)cc(C(=O)OC)c1", "fluorescence interference ratio": 1.05}

Lookup result for `COc1ccc(OC)c(S(=O)(=O)N2CCC(Cc3ccccc3)CC2)c1` ; measured fluorescence interference ratio: 0.968

For this compound ( CCC(C)c1ccc(NC(=O)c2ccc([N+](=O)[O-])cc2)cc1 (centres undefined) ), measured fluorescence interference ratio is 1.06

fluorescence interference ratio for `COc1ccc2c(c1)-c1c(ssc1=S)C(C)(C)N2C(=O)COc1ccccc1` is 0.931

Source listed as PubChem BioAssay AID720488.
